- Test system: Candida tropicalis
- Protocol Summary: Antifungal activity against Candida tropicalis after 24 hrs by serial dilution method
- Format: functional
Bridge positions count the residues as written; N and C are the ends. Square brackets hold non-standard residues; d marks the D form. Peptide text beside a SMILES is read from it. * marks the point of attachment. 2Naphthoyl(6-heptyloxy) = CCCCCCCOc1ccc2cc(C(=O)*)ccc2c1; 2Naphthoyl(6-octyloxy) = CCCCCCCCOc1ccc2cc(C(=O)*)ccc2c1; X2 = CCCCCCCOc1ccc(-c2ccc(-c3ccc(C(=O)*)cc3)cc2)cc1; X1 = CCCOc1ccc(-c2ccc(-c3ccc(C(=O)*)cc3)cc2)cc1; Pro(4S-NH2) = N[C@@H]1CN[C@H](C(=O)O)C1; hTyr = N[C@@H](CCc1ccc(O)cc1)C(=O)O; Orn = NCCC[C@H](N)C(=O)O
Readout Type: MIC80 (µg/mL)
One number for each entry, in µg/mL.

For the 8 compounds below, give their MIC80 values.
1. CCCOc1ccc(-c2ccc(-c3ccc(C(=O)N[C@H]4CCCNC(=O)[C@@H]5C[C@H](N)CN5C(=O)[C@H](CCCN)NC(=O)[C@H](CCc5ccc(O)cc5)NC(=O)[C@@H]5CCCN5C(=O)[C@H](C(C)C)NC4=O)cc3)cc2)cc1.Cc1ccc(S(=O)(=O)O)cc1 (X1-[Orn]VP[hTyr][Orn][Pro(4S-NH2)]; lactam 1-C)
2. CCCCCCCOc1ccc2cc(C(=O)N[C@H]3CCCNC(=O)[C@@H]4C[C@H](N)CN4C(=O)[C@H](CCCCN)NC(=O)[C@H](CCc4ccc(O)cc4)NC(=O)[C@@H]4CCCN4C(=O)[C@H](C(C)C)NC3=O)ccc2c1.Cc1ccc(S(=O)(=O)O)cc1 ({2Naphthoyl(6-heptyloxy)}-[Orn]VP[hTyr]K[Pro(4S-NH2)]; lactam 1-C)
3. CCCCCCCOc1ccc(-c2ccc(-c3ccc(C(=O)N[C@H]4CCCNC(=O)[C@@H]5C[C@H](N)CN5C(=O)[C@H](CCCCN)NC(=O)[C@H](CCc5ccc(O)cc5)NC(=O)[C@@H]5CCCN5C(=O)[C@H]([C@@H](C)O)NC4=O)cc3)cc2)cc1.Cc1ccc(S(=O)(=O)O)cc1 (X2-[Orn]TP[hTyr]K[Pro(4S-NH2)]; lactam 1-C)
4. CCCCCCCOc1ccc2cc(C(=O)N[C@H]3CCCNC(=O)[C@@H]4C[C@H](N)CN4C(=O)[C@H](CCCCN)NC(=O)[C@H](CCc4ccc(O)cc4)NC(=O)[C@@H]4CCCN4C(=O)[C@H]([C@@H](C)O)NC3=O)ccc2c1.Cc1ccc(S(=O)(=O)O)cc1 ({2Naphthoyl(6-heptyloxy)}-[Orn]TP[hTyr]K[Pro(4S-NH2)]; lactam 1-C)
5. CCCCCCCOc1ccc2cc(C(=O)N[C@H]3CCCNC(=O)[C@@H]4C[C@H](N)CN4C(=O)[C@H]([C@H](C)O)NC(=O)[C@H](CCc4ccc(O)cc4)NC(=O)[C@@H]4C[C@H](N)CN4C(=O)[C@H](CO)NC3=O)ccc2c1.Cc1ccc(S(=O)(=O)O)cc1
6. CCCCCCCCOc1ccc2cc(C(=O)N[C@H]3CCCNC(=O)[C@@H]4C[C@H](N)CN4C(=O)[C@H](CCCCN)NC(=O)[C@H](CCc4ccc(O)cc4)NC(=O)[C@@H]4CCCN4C(=O)[C@H](C(C)C)NC3=O)ccc2c1.Cc1ccc(S(=O)(=O)O)cc1 ({2Naphthoyl(6-octyloxy)}-[Orn]VP[hTyr]K[Pro(4S-NH2)]; lactam 1-C)
7. CCCOc1ccc(-c2ccc(-c3ccc(C(=O)N[C@H]4CCCNC(=O)[C@@H]5C[C@H](N)CN5C(=O)[C@H](CCCN)NC(=O)[C@H](CCc5ccc(O)cc5)NC(=O)[C@@H]5CCCN5C(=O)[C@H]([C@@H](C)O)NC4=O)cc3)cc2)cc1.Cc1ccc(S(=O)(=O)O)cc1 (X1-[Orn]TP[hTyr][Orn][Pro(4S-NH2)]; lactam 1-C)
8. CCCCCCCCOc1ccc2cc(C(=O)N[C@H]3CCCNC(=O)[C@@H]4C[C@H](N)CN4C(=O)[C@H](CCCN)NC(=O)[C@H](CCc4ccc(O)cc4)NC(=O)[C@@H]4CCCN4C(=O)[C@H](C(C)C)NC3=O)ccc2c1.Cc1ccc(S(=O)(=O)O)cc1 ({2Naphthoyl(6-octyloxy)}-[Orn]VP[hTyr][Orn][Pro(4S-NH2)]; lactam 1-C)

1: 8; 2: 32; 3: 8; 4: 16; 5: 32; 6: 32; 7: 8; 8: 16

---

- System: Pichia kudriavzevii
- Protocol Summary: Antifungal activity against Candida krusei after 24 hrs by serial dilution method
- Type: functional
Bridge positions count the residues as written; N and C are the ends. Square brackets hold non-standard residues; d marks the D form. Peptide text beside a SMILES is read from it. * marks the point of attachment. X2 = CCCCCCCOc1ccc(-c2ccc(-c3ccc(C(=O)*)cc3)cc2)cc1; X1 = CCCOc1ccc(-c2ccc(-c3ccc(C(=O)*)cc3)cc2)cc1; Pro(4S-NH2) = N[C@@H]1CN[C@H](C(=O)O)C1; hTyr = N[C@@H](CCc1ccc(O)cc1)C(=O)O; Orn = NCCC[C@H](N)C(=O)O
Readout Type: MIC80 (µg/mL)
One number for each entry, in µg/mL.

# count of solved cases: 3
{"Compound": "CCCCCCCOc1ccc(-c2ccc(-c3ccc(C(=O)N[C@H]4CCCNC(=O)[C@@H]5C[C@H](N)CN5C(=O)[C@H](CCCN)NC(=O)[C@H](CCc5ccc(O)cc5)NC(=O)[C@@H]5CCCN5C(=O)[C@H]([C@@H](C)O)NC4=O)cc3)cc2)cc1.Cc1ccc(S(=O)(=O)O)cc1 (X2-[Orn]TP[hTyr][Orn][Pro(4S-NH2)]; lactam 1-C)", "Readout Type": "MIC80", "Experimental Value": 1}
{"Compound": "CCCOc1ccc(-c2ccc(-c3ccc(C(=O)N[C@H]4CCCNC(=O)[C@@H]5C[C@H](N)CN5C(=O)[C@H](CCCCN)NC(=O)[C@H](CCc5ccc(O)cc5)NC(=O)[C@@H]5CCCN5C(=O)[C@H](C(C)C)NC4=O)cc3)cc2)cc1.Cc1ccc(S(=O)(=O)O)cc1 (X1-[Orn]VP[hTyr]K[Pro(4S-NH2)]; lactam 1-C)", "Readout Type": "MIC80", "Experimental Value": 2}
{"Compound": "CCCCCCCOc1ccc(-c2ccc(-c3ccc(C(=O)N[C@H]4CCCNC(=O)[C@@H]5C[C@H](N)CN5C(=O)[C@H](CCCCN)NC(=O)[C@H](CCc5ccc(O)cc5)NC(=O)[C@@H]5CCCN5C(=O)[C@H](C(C)C)NC4=O)cc3)cc2)cc1.Cc1ccc(S(=O)(=O)O)cc1 (X2-[Orn]VP[hTyr]K[Pro(4S-NH2)]; lactam 1-C)", "Readout Type": "MIC80", "Experimental Value": 2}

# next compound below
If you can, please state the reported MIC80 value of CCCCCCCOc1ccc(-c2ccc(-c3ccc(C(=O)N[C@H]4CCCNC(=O)[C@@H]5C[C@H](N)CN5C(=O)[C@H](CCCN)NC(=O)[C@H](CCc5ccc(O)cc5)NC(=O)[C@@H]5CCCN5C(=O)[C@H](C(C)C)NC4=O)cc3)cc2)cc1.Cc1ccc(S(=O)(=O)O)cc1 (X2-[Orn]VP[hTyr][Orn][Pro(4S-NH2)]; lactam 1-C) .
2

---

- Test system: Candida tropicalis
- Protocol Summary: Antifungal activity against Candida tropicalis after 24 hrs by serial dilution method
- Format: functional
Bridge positions count the residues as written; N and C are the ends. Square brackets hold non-standard residues; d marks the D form. Peptide text beside a SMILES is read from it. * marks the point of attachment. pTerphenylCO(4''-OnC5H11) = CCCCCOc1ccc(-c2ccc(-c3ccc(C(=O)*)cc3)cc2)cc1; 2Naphthoyl(6-heptyloxy) = CCCCCCCOc1ccc2cc(C(=O)*)ccc2c1; 2Naphthoyl(6-octyloxy) = CCCCCCCCOc1ccc2cc(C(=O)*)ccc2c1; Pro(4S-NH2) = N[C@@H]1CN[C@H](C(=O)O)C1; hTyr = N[C@@H](CCc1ccc(O)cc1)C(=O)O; Orn = NCCC[C@H](N)C(=O)O
Readout Type: MIC80 (mg/L)
One number for each entry, in mg/L.

# count of solved cases: 3
{"Compound": "CC[C@H](C)C[C@H](C)CCCCCCCCC(=O)N[C@H]1C[C@@H](O)[C@@H](NCCN)NC(=O)[C@@H]2[C@@H](O)CCN2C(=O)[C@H]([C@H](O)CCN)NC(=O)[C@H]([C@H](O)[C@@H](O)c2ccc(O)cc2)NC(=O)[C@@H]2C[C@@H](O)CN2C(=O)[C@H]([C@@H](C)O)NC1=O [CASPOFUNGIN]", "Experimental Value": 4}
{"Compound": "CCCCCCCOc1ccc2cc(C(=O)N[C@H]3CCCNC(=O)[C@@H]4C[C@H](N)CN4C(=O)[C@H](CCCN)NC(=O)[C@H](CCc4ccc(O)cc4)NC(=O)[C@@H]4CCCN4C(=O)[C@H](C(C)C)NC3=O)ccc2c1.Cc1ccc(S(=O)(=O)O)cc1 ({2Naphthoyl(6-heptyloxy)}-[Orn]VP[hTyr][Orn][Pro(4S-NH2)]; lactam 1-C)", "Experimental Value": 32}
{"Compound": "CCCCCOc1ccc(-c2ccc(-c3ccc(C(=O)N[C@H]4CCCNC(=O)[C@@H]5C[C@H](N)CN5C(=O)[C@H](CCCN)NC(=O)[C@H](CCc5ccc(O)cc5)NC(=O)[C@@H]5CCCN5C(=O)[C@H](C(C)C)NC4=O)cc3)cc2)cc1.Cc1ccc(S(=O)(=O)O)cc1 ({pTerphenylCO(4''-OnC5H11)}-[Orn]VP[hTyr][Orn][Pro(4S-NH2)]; lactam 1-C)", "Experimental Value": 8}

# next compound below
If you can, please state the reported MIC80 value of CCCCCCCCOc1ccc2cc(C(=O)N[C@H]3CCCNC(=O)[C@@H]4C[C@H](N)CN4C(=O)[C@H](CCCCN)NC(=O)[C@H](CCc4ccc(O)cc4)NC(=O)[C@@H]4CCCN4C(=O)[C@H]([C@@H](C)O)NC3=O)ccc2c1.Cc1ccc(S(=O)(=O)O)cc1 ({2Naphthoyl(6-octyloxy)}-[Orn]TP[hTyr]K[Pro(4S-NH2)]; lactam 1-C) .
32
